Value source: PubChem BioAssay

Assay Explanation: viability loss with induced miR-34 in A549 – imaging, A549 dox-inducible miR-34, nuclei and caspase counts, primary screen (AID 1347080); further: test concentration not given here
Measurement Setup: A549 miR-34 inducible, Hoechst nuclei count, 48 h; measured here: relative caspase fold change +Dox/-Dox
Lab note: cut-off is 1. Strictly less in fold change is MET. Exactly 1 or more is NOT MET.

Illustrative cases are given below, each with its answer.
Nc1c2c(nc3c1CCC3)CCCC2; NOT MET
NC(=O)NC(=O)Cc1ccccc1; MET
CN(C)CC[C@@H](c1ccc(Br)cc1)c1ccccn1; NOT MET
O=C(OCc1ccccc1)c1ccccc1; NOT MET
CC[N+](C)(C)Cc1ccccc1Br; NOT MET
NC/C=C/C(=O)O; NOT MET
Nc1nc(=S)c2[nH]cnc2[nH]1; MET
O=c1cc[nH]c(=S)[nH]1; MET
O=C(O)c1cc(O)c(O)c(O)c1; NOT MET
CC(C)NC[C@@H](O)COc1cccc2ccccc12; MET

Okay, now this molecule:
Field: below-cutoff. Rule: recorded fold change strictly less than 1. Subject: "NC(=O)c1ccccc1O"
NOT MET
